// provenance: patent US20250043319A1

Assay: cell-free cyclolavandulylation activity screening of prenyltransferases, substrate tryptophan
Assay type: biochemical
Conditions: cell-free reaction with CLDS and DMAPP (CLPP donor), 28° C., 48 hours, QTOF LC/MS, with vs without prenyltransferase
Quantity Measured: presence of cyclolavandulylated product, Aromatic Compound (Substrate) Tryptophan

>  <Molecule>
NapT9: prenyltransferase, Accession: ABS50490.1, SEQ ID NO: 14 (protein, listed as Streptomyces sp.) MSGATGAEKLYSAIEESARMVDAPFSRDKVWPTLSAFEGGFSDAGGVILSLQAGTHVPEMEYSAQVSPGISDPYARALASGILTETDHPVSTVLAEIVSLAPTSEHYIDCGIVGGFKKIYANFPHDQQTVAALAGLPSMPRAVGGNAEFFARHGLDRVALIGVDYVNKTINLYFQVSAATAGNLDQKTVSAMLHETGMSEPSDAMVAYACQAYRIYTTLSWDAQEILRIAFAPKPRRGIDPADLPARLEPRIEKFLRATPHKYPGALINATAAKWSPEREVLDLAAHYQVSAVQMKAIEAEEGQAS

>  <Experimental Result>
No

$$$$
